Target: Recombinant human LTC4 synthase (Homo sapiens, UniProt Q16873)
Sequence (Q16873 1-150): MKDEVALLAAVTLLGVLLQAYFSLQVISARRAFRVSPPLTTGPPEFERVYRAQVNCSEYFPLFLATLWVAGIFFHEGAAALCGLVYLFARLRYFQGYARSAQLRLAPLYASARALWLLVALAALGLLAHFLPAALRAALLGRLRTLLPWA
Assay: In vitro LTC4 synthase assay (LTA4 to LTC4, HTRF detection)
measured-metric: IC50 (µM)
Express the result in µM but write the number alone.

See these solved cases before continuing.
smiles-record	result-units	IC50
Cc1ccccc1CNc1cc(C(=O)O)cc(C(=O)c2ccc(N(C)c3ccc(Cl)cc3)cc2)c1	µM	0.284
COc1cccc(Nc2cc(C(=O)O)cc(C(=O)c3ccc(N(C)c4ccc(Cl)cc4)cc3)c2)c1	µM	0.273
CN(c1ccc(Cl)cc1)c1ccc(C(=O)c2ccc(NS(=O)(=O)c3ccc(OC(F)(F)F)cc3)cc2)c(C(=O)O)c1	µM	0.549

# evaluate next
query: What does the data say about its IC50? Entry: CN(c1ccc(Cl)cc1)c1ccc(C(=O)c2cc(Oc3ccccc3Cl)cc(C(=O)O)c2)nc1
result: 0.077
